Hello, the source for this data is PubChem BioAssay, in case you need it.

- System: TRPC4 (mouse), co-expressed with 5HT1a in HEK293
- experimentDescription: enhancement of serotonin-evoked TRPC4 response – cell-based, second counter screen, HEK293 TRPC4/5HT1a, Fluo-4, counter-screen for TRPC4 potentiator project, confirmation (AID 434979)
- conditionNotes: Fluo-4 calcium flux, at 10 µM, serotonin added at its EC20 dose
Activity calls are given as the source filed them.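 The calls were made as follows: active = signal rise over 3 SD above mean of control wells given weak agonist, in both repeats and first screen; inactive = the rest.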
Outcomes: active, inactive

| compound | label |
| --- | --- |
| CCOC(=O)c1oc2ccccc2c1CN1CCCCC1 | inactive |
| CCCCCOc1ccc2oc(=O)c3c(c2c1)CCCN3C(=O)CN1CCCC(C(=O)OCC)C1 (stereo not drawn) | active |
| COCCCNc1cc(C)nc2ccccc12 | inactive |
| O=S(=O)(NCC1NCCc2ccccc21)c1ccccc1 (stereo not drawn) | inactive |
| O=C(COC(=O)c1cccc([N+](=O)[O-])c1)c1ccc2c(c1)OCO2 | inactive |
| COc1ccc(N2CCN(C3CCCCC3NS(=O)(=O)c3ccc(Cl)cc3)CC2)cc1 (stereo not drawn) | active |
| COCCn1c(SCc2cc(C(C)=O)ccc2OC)nc2cc(Cl)ccc2c1=O | inactive |
| COc1ccc(C(CNC(=O)COc2ccccc2OC)N(C)C)cc1OC (stereo not drawn) | inactive |
| Cc1ccccc1CN1CCCC(C(=O)Nc2ccccc2Oc2cccnc2)C1 (stereo not drawn) | inactive |
| CCOc1ccc(Br)cc1/C=N/O | inactive |
| CN1C(CC(=O)Nc2ccc(Br)cc2)c2ccccc2CC1(C)C (stereo not drawn) | inactive |
| c1ccc(NC(=NCc2ccco2)c2ccccc2)cc1 | inactive |
| CN(C(=O)COC(=O)c1sc2ccccc2c1Cl)C1CCCCC1 | active |
| O=C(NCc1cccs1)C12CC3CC(CC(C3)C1)C2 | inactive |
| O=C1NC(c2ccccc2)=C(c2nc3ccccc3s2)C(c2ccccc2)N1 (stereo not drawn) | active |
| Cc1ccsc1C(=O)OCC(=O)NCCNC(=O)COC(=O)c1sccc1C | inactive |
| COc1ccc(C(CNC(=O)C(Cc2ccccc2)NC(N)=O)N(C)C)cc1 (stereo not drawn) | inactive |
| CN1CCN(c2ccc(Cl)cc2NC(=O)CC2OC(=O)c3ccccc32)CC1 (stereo not drawn) | active |
| NS(=O)(=O)c1ccc(CCNCc2ccccc2OCc2ccc(Cl)cc2)cc1 | inactive |
| Cc1onc(-c2c(F)cccc2Cl)c1C(=O)N(C)CC(=O)Nc1cccc(F)c1 | inactive |
| CC(C)c1c(O)nc(SCCN(C)C)[nH]c1=O | active |
| COc1cc(NS(=O)(=O)c2ccc3ccccc3c2)c2ncccc2c1 | inactive |
| CC(C)(C)C(=O)NCCCc1nc2ccccc2n1CCCOc1ccc(Cl)cc1 | inactive |

----------
- measurementTarget: Short transient receptor potential channel 6 (Mus musculus) (UniProt Q61143)
- Sequence (Q61143 whole entry, looked up): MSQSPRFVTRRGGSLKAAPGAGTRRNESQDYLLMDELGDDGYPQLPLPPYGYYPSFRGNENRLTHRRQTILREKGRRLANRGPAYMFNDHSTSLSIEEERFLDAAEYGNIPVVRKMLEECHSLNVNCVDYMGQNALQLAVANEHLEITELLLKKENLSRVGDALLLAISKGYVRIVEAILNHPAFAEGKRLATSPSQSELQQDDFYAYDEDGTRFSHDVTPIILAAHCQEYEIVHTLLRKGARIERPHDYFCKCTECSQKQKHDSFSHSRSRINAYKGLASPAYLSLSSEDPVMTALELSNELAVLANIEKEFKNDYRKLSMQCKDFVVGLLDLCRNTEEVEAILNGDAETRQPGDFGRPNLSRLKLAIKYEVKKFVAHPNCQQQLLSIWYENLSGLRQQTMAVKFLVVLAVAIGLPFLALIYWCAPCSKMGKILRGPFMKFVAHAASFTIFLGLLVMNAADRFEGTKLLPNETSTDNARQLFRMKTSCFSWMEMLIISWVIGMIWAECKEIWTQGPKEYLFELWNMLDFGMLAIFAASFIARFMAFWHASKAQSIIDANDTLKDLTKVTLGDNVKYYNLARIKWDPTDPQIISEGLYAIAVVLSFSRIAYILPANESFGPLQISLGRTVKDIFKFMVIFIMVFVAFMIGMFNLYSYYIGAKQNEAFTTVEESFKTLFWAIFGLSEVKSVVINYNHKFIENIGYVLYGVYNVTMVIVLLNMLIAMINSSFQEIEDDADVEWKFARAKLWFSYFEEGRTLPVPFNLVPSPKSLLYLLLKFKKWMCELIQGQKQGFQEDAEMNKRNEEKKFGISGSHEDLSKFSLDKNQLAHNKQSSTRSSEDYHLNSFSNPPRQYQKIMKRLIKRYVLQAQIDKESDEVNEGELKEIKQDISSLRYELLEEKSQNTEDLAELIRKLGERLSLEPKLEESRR
- experimentDescription: TRPC6 opening by TRPC4 activator hits – cell-based, HEK293, membrane potential dye, duplicate, selectivity assay for TRPC4 activator project, confirmation (AID 434950);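 also: 0% = buffer only wells and 100% = acetylcholine maximal-effect wells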
- conditionNotes: HEK293 TRPC6, membrane potential fluorescence, at 10 µM; active compounds read high
We use 50% as the dividing line for activation: on or above the line is class 1, below is class 0.

| molecule | measurementTarget | label |
| --- | --- | --- |
| COc1ccc(C(CNC(=O)/C=C/c2c(Cl)nc3ccccn23)N(C)C)cc1 (stereo not given) | Short transient receptor potential channel 6 (Mus musculus) (UniProt Q61143) | class 0 |
| COc1cc(/C=C/C(=O)OCC(=O)Nc2c(C)n(C)n(-c3ccccc3)c2=O)ccc1OCC#N | Short transient receptor potential channel 6 (Mus musculus) (UniProt Q61143) | class 0 |
| Cc1ccn(CC(=O)NC2CCCN(Cc3ccc(CC(C)C)cc3)C2)n1 (stereo not given) | Short transient receptor potential channel 6 (Mus musculus) (UniProt Q61143) | class 1 |
| CCOC(=O)C1(CC2CCCCO2)CCN(Cc2cc(F)ccc2-n2cccn2)CC1 (stereo not given) | Short transient receptor potential channel 6 (Mus musculus) (UniProt Q61143) | class 1 |
| O=C(NC1CCN(Cc2ccccc2)CC1)C12CC3CC(CC(C3)C1)C2 | Short transient receptor potential channel 6 (Mus musculus) (UniProt Q61143) | class 1 |

----------
- measurementTarget: Short transient receptor potential channel 6 (Mus musculus) (UniProt Q61143)
- experimentDescription: TRPC6 blockade by TRPC4 inhibitor hits – cell-based, HEK293, membrane potential dye, duplicate, selectivity assay for TRPC4 inhibitor project, confirmation (AID 434948)
- conditionNotes: HEK293 TRPC6, membrane potential dye fluorescence, at 10 µM, stimulated with maximal-effect acetylcholine; active compounds read high
Active and inactive are the calls of the source.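 Rule for the calls: active = active in primary screen and both duplicates, each dropping signal beyond three positive-control SD with fluorescence still positive; inactive = the rest.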

| compound | inhibition |
| --- | --- |
| COc1cc(/C=C2\SC(=O)N(c3ccccc3Cl)C2=O)cc([N+](=O)[O-])c1O | inactive |
| CC(C)Cn1c(CN2CCN(C)C(CCO)C2)nc2ccccc21 (stereo unspecified) | inactive |
| CCCN(CCC)CCCNC(=O)CNC(=O)c1nn(-c2ccc(OC)cc2)c(=O)c2ccccc12 | inactive |
| C=CCc1ccccc1OCC(O)CN1CCN(c2ccccc2OC)CC1 (stereo unspecified) | inactive |
| CN(C)CCCNC(=O)/C=C/c1ccc(OCc2c(F)cccc2Cl)cc1 | inactive |
| COc1ccc(C(CNC(=O)c2oc3ccc(Cl)cc3c2C)N2CCCCC2)cc1 (stereo unspecified) | inactive |
| Fc1ccc(NC(=S)NCCc2ccccn2)cc1 | inactive |
| Cc1ccc(Nc2cc(C)nc3ccc(C)cc23)cc1 | 35% (active) |
| NC(=O)c1nsc(C(=O)N(Cc2ccco2)C(C(=O)NCC2CCCO2)c2ccc(F)cc2)c1N (stereo unspecified) | inactive |
| CCCc1c(O)nc(SCCN(CC)CC)[nH]c1=O | inactive |
| COc1ccc(C(CNc2ccc(C(F)(F)F)cn2)N(C)C)cc1OC (stereo unspecified) | inactive |

----------
- measurementTarget: Potassium voltage-gated channel subfamily KQT member 2 (Rattus norvegicus)
- experimentDescription: KCNQ2 thallium flux enhancement – KCNQ2-CHO-K1 cells, selectivity assay for KCNQ1 potentiator project (AID 493009);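 also: assay conditions were tuned for KCNQ1 rather than KCNQ2 modulators; signal is max minus min fluorescence divided by baseline after thallium stimulus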
- conditionNotes: FluxOR thallium flux fluorescence, at 10 µM; active compounds read high, scaled: buffer 0, activator control 100
Activity calls are given as the source filed them.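 The calls were made as follows: active = mean duplicate potentiation above the buffer control mean plus 5 SD of buffer wells; inactive = the rest.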

| smilesEntry | potentiation |
| --- | --- |
| CC1=NN(c2ccccc2)C(=O)/C1=C/c1c(O)n(-c2ccc(F)c(Cl)c2)[nH]c1=O | inactive |
| O=c1c2cc(Br)ccc2nc(-c2cccc(Cl)c2)n1O | 703% (active) |
| CCn1c2ccccc2c2cc(NC(=O)CNC)ccc21 | inactive |
| O=Cc1cc(N=Nc2ccccc2Cl)ccc1O | 248% (active) |
| COc1cc(NS(=O)(=O)c2ccc3ccccc3c2)c2ncccc2c1 | 154% (active) |
| CCc1ccc(NC(=O)C(=O)NNC(=O)c2cccs2)cc1 | 421% (active) |
| Cc1nc2c3cc(Cl)ccc3n(CCN3CCCCC3)c2s1 | inactive |

----------
- System: TRPC4 beta (transient receptor potential cation channel C4), mouse
- experimentDescription: potentiation of DAMGO EC20 TRPC4 response – cell-based, Fluo-4, HEK293 TRPC4beta/mu-opioid, confirmation (AID 2555)
- conditionNotes: DAMGO EC20, Fluo-4 calcium flux, at 10 µM
Calls of active or inactive are those of the source.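 Rule for the calls: active = primary screen hit whose calcium fluorescence ratio, in both repeats, exceeds the weak agonist control mean by 3 SD; inactive = the rest.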
Outcomes: true (1) for active, false (0) for inactive

| molecule | label |
| --- | --- |
| CCc1nc2ccccc2n1Cc1ccccc1F | false (0) |
| COc1ccc(C(CNc2ncnc3sc(C)c(C)c23)N(C)C)cc1 (stereo unspecified) | false (0) |
| CCOC(=O)C(CCCCCOc1ccc([N+](=O)[O-])cc1)C(=O)OCC | true (1) |
| CCCCN(C)CCNC(=S)Nc1ccc2nc(N3CCN(CC)CC3)cc(C)c2c1 | false (0) |
| O=C(Nc1ncc(Br)s1)C(Cc1ccccc1)n1cccc1 (stereo unspecified) | true (1) |
| CCOC(=O)C(C)Sc1nc2c(c(=O)[nH]c(=O)n2C)n1Cc1ccc(Cl)cc1 (stereo unspecified) | false (0) |
| O=C(NCc1ccccc1)c1ccc(S(=O)(=O)Nc2cccc(C(F)(F)F)c2)cc1 | true (1) |
| CC1CC(C)CN(CCCNC(=O)C2CCCN(c3ncnc4c3nc3n4CCCCC3)C2)C1 (stereo unspecified) | false (0) |
| CCCN(CCC)CCCNC(=O)c1ccc2c(Cl)c3c(nc2c1)CCC3 | false (0) |
| CN(C)c1ccc(C(CNC(=O)Cc2cccc3ccccc23)N(C)C)cc1 (stereo unspecified) | false (0) |
| CC1CCN(CCOCCOc2ccccc2-c2ccccc2)CC1 | false (0) |

----------
- experimentDescription: serotonin-gated TRPC4 signal block – cell-based, second counter screen, HEK293 TRPC4/5HT1a, Fluo-4, counter-screen for TRPC4 inhibitor project, confirmation (AID 434978)
- conditionNotes: Fluo-4 calcium flux, at 10 µM, serotonin added to trigger calcium flux
Active and inactive are the calls of the source.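 The calls were made as follows: active = primary screen active whose calcium signal fell more than 3 SD beyond the full-serotonin control mean in both duplicate plates; inactive = the rest.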
Outcomes: Yes for active, No for inactive

| compound | label |
| --- | --- |
| CC1(C)CC(=O)C(C=NCCN2CCN(C3CC(=O)N(c4cccc(Br)c4)C3=O)CC2)=C(O)C1 (stereo not given) | No |
| CC(COc1ccccc1)N1CCC(CO)(CCc2ccccc2)CC1 (stereo not given) | No |
| O=C(O)CCC(=O)N1CCN(c2nc3ccccc3s2)CC1 | No |
| CCCn1nc([N+](=O)[O-])c(C(C#N)c2nc3ccccc3o2)c(Cl)c1=O (stereo not given) | Yes |
| CC(C(=O)c1ccc(Br)cc1)[n+]1cccc(NC(=O)c2ccccc2)c1 (stereo not given) | No |
| Cc1cccc(/C=N/NC(=O)c2cccc(Cl)c2)n1 | No |
| CN1CCN(S(=O)(=O)c2ccc(Br)c3ccccc23)CC1 | No |
| Cc1ccc(-n2cc(CNC(C)c3cnn(C)c3C)c(-c3ccc(F)cc3)n2)cc1 (stereo not given) | No |
| CSc1ccc(S(=O)(=O)NCC(=O)OCC(=O)N(C)Cc2ccccc2)cc1[N+](=O)[O-] | No |
| O=C(O)c1ccc(CSc2nc(-c3ccc(Cl)cc3)cc(C(F)(F)F)n2)cc1 | Yes |
